Hey, just so you know, these numbers are from patent US20220033501A1.

As shown below, each of these binders has a reported OD450 value.
- testTarget: T1, monkey TIM-3 extracellular domain protein with hFc tag (cTIM-3-hFc) (monkey)
- T1 construct: not shown: human IgG Fc fragment (hFc) of the pCpC vector
- T1 chain: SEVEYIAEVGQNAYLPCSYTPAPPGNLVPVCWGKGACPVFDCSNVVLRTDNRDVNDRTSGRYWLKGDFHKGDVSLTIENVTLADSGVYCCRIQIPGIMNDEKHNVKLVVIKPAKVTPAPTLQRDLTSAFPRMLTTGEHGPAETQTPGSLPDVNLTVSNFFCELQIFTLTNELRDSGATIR
- assayText: ELISA, coated monkey TIM-3 ECD protein, 0.0001 nM antibody
Write no unit; give the number alone.

Known results for binders:
Query string: Can you share its OD450? I mean this binder: 39E5H1 fully human TIM-3 antibody (human IgG4, kappa) (antibody, V domains shown) VH: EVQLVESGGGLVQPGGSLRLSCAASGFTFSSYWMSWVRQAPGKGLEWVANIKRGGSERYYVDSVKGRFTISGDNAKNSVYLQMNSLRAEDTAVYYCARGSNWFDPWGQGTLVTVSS VL: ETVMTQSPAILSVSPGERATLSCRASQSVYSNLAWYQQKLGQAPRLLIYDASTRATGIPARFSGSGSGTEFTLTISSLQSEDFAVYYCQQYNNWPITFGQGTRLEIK
Result string: 0.17

Query string: Subsequent entry: 18D2H2 fully human TIM-3 antibody (human IgG4, kappa) (antibody, V domains shown) VH: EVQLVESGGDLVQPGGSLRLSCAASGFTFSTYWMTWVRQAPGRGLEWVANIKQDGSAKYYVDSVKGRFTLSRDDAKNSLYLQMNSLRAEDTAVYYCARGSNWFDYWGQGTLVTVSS VL: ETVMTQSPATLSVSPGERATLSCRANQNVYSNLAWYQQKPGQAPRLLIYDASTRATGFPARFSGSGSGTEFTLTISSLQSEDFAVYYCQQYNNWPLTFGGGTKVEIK
Result string: 0.14

Turning now to a further record.
Query string: Endpoint output: OD450 of 7A4F10 fully human TIM-3 antibody (human IgG4, kappa) (antibody, V domains shown) VH: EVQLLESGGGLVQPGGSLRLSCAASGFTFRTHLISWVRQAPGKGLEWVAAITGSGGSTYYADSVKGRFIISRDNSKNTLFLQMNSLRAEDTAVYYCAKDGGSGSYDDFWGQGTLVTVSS VL: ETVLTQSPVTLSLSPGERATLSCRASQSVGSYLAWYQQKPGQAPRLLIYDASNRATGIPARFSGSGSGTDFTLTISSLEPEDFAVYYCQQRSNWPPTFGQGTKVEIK . Value?
Result string: 0.13
